molecular target: UniProt Q92887; assay: TP_TRANSPORTER: inhibition of calcein-AM efflux in MRP2-expressing MDCK cells; type: functional, cell-based; settings: read-out: IC50
Sequence (Q92887 whole entry): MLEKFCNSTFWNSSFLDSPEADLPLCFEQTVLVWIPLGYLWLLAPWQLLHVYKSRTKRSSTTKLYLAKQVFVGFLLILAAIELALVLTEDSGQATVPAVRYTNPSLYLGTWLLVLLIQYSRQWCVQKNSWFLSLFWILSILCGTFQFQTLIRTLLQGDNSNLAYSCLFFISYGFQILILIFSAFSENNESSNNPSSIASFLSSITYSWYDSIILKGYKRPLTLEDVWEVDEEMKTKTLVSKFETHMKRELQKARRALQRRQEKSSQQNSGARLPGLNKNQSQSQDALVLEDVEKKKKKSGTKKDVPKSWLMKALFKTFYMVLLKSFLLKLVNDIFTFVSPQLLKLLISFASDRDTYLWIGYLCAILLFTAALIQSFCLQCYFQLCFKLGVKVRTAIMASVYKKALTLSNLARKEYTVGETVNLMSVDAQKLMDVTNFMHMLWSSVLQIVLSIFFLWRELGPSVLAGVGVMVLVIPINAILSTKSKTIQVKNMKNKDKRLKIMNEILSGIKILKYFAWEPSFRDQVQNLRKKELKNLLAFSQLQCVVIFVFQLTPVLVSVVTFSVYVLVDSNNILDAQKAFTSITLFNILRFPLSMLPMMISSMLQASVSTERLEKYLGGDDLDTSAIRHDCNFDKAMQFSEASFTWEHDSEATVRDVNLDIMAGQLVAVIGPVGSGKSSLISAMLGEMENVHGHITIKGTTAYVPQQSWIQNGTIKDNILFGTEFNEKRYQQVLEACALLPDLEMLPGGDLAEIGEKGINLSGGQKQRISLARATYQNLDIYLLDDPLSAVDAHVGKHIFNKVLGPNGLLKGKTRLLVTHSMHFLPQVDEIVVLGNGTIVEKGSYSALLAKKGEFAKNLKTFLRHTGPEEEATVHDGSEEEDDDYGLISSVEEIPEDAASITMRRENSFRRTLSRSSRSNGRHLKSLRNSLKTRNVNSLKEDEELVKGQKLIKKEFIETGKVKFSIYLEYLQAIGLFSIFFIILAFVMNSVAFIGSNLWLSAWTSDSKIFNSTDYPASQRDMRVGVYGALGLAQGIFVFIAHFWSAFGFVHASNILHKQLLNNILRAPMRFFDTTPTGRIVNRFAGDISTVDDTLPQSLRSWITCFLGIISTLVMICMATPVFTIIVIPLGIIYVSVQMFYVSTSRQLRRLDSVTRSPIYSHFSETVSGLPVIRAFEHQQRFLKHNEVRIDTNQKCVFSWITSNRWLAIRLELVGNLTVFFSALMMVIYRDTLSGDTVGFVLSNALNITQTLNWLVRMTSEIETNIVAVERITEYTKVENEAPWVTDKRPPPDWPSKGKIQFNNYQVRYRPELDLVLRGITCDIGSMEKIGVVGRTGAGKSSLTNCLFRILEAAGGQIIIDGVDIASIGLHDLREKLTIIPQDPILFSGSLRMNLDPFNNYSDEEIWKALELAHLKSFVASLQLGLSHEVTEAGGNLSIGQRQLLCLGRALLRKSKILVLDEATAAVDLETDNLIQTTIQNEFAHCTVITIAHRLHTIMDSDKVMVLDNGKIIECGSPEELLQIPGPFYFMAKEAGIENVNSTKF
readout type: IC50 (µM)

| molecule | number |
| --- | --- |
| CC(C)c1c(C(=O)Nc2ccccc2)c(-c2ccccc2)c(-c2ccc(F)cc2)n1CC[C@@H]1C[C@@H](O)CC(=O)O1 [ATORVASTATIN LACTONE] | 15 |
| CC[C@]1(O)C[C@@H]2CN(CCc3c([nH]c4ccccc34)[C@@](C(=O)OC)(c3cc4c(cc3OC)N(C)[C@H]3[C@@](O)(C(=O)OC)[C@H](OC(C)=O)[C@]5(CC)C=CCN6CC[C@]43[C@@H]65)C2)C1 [VINBLASTINE] | 21 |
